Collected set of IC50 measured with High affinity nerve growth factor receptor (Homo sapiens) across studies.

COCCN1C[C@@H](NC(=O)Nc2c(Cl)c(-c3ccccc3)nn2C)[C@H](c2ccc(F)c(F)c2)C1 | 100 to 1000 nM
Cc1cc(NC(=O)N[C@@H]2c3cc(F)c(F)cc3C(C)(C)C[C@H]2O)c(C2CCOCC2)nc1-c1cn[nH]c1 (racemic) | 50 to 1000 nM

Next compound, please.
Request - read-out IC50 | tested on High affinity nerve growth factor receptor (Homo sapiens) | compound C[C@@H]1CCOc2ccc(F)cc2[C@@H](C)Nc2ccc3ncc(F)c(c3n2)N1
< 50 nM

---

pIC50: −log10 of the molar value.
Collected set of pIC50 measured with UniProt P04629 across studies.

# annotated cases, reported pIC50 shown
COCCN1C[C@@H](NC(=O)Nc2c(C)c(-c3cnn(C4CC4)c3)nn2-c2ccccc2)[C@H](c2ccc(F)c(F)c2)C1 | > 7.00
COCC(C(=O)OC)N1C[C@@H](NC(=O)Nc2c3c(nn2-c2ccccc2)CCC3)[C@H](c2ccc(F)c(F)c2)C1 (some centres unmarked) | > 7.00
COCCN1C[C@@H](NC(=O)Nc2cc(C(F)(F)CO)nn2-c2ccccc2)[C@H](c2ccc(F)c(F)c2)C1 | > 7.00
COCCOc1nn(-c2ccccc2)c(NC(=O)N[C@@H]2CN(c3cn[nH]c3)C[C@H]2c2ccc(F)c(F)c2)c1C | > 7.00

Request - read-out pIC50 | tested on UniProt P04629 | compound N#CCN1C[C@@H](NC(=O)Nc2c3c(nn2-c2ccccc2)CCC3)[C@H](c2ccccc2)C1
6.00 to 7.00

Request - read-out pIC50 | tested on UniProt P04629 | compound Cn1nc(-c2ccccc2)cc1NC(=O)N[C@@H]1CN(CC(F)(F)F)C[C@H]1c1cccc(F)c1
6.00 to 7.00

Request - read-out pIC50 | tested on UniProt P04629 | compound CC(C)Nc1ncnc2[nH]cc(C(=O)c3ccc(NC4CCCCC4)nc3Cl)c12
> 7.00

Request - read-out pIC50 | tested on UniProt P04629 | compound CCn1cc(C(=O)Nc2ccc(Oc3ccnc4cc(OC5CC5)c5c(c34)OCCO5)cc2)c(=O)n(-c2ccc(F)cc2)c1=O
< 5.30

Request - read-out pIC50 | tested on UniProt P04629 | compound CCOc1ccn(-c2ccc(F)cc2)c(=O)c1C(=O)Nc1ccc(Oc2ccnc3cc(OCCCN4CCCC4)c4c(c23)OCCO4)c(F)c1
> 7.30

Request - read-out pIC50 | tested on UniProt P04629 | compound O=C(Nc1cc(F)cc(F)c1)Nc1ccc2[nH]nc(/C=C/c3ccccn3)c2c1
7.33

Request - read-out pIC50 | tested on UniProt P04629 | compound Cc1cc(NC(=O)N[C@@H]2c3cc(F)c(F)cc3C(C)(C)C[C@H]2O)c(-c2ccccc2)nc1-c1cnc(C(C)(C)O)nc1 (racemic)
≥ 7.30
